Exercise: for every item that follows, state its recorded growth inhibition.
- ASSAY METHOD TEXT: NCI Yeast Anticancer Drug Screen. Data for the sgs1 mgt1 strain (AID 161);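 also: 0% = growth of cultures given vehicle only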
- TEST SETTINGS: S. cerevisiae sgs1 mgt1 strain, at 50.0 µM, stronger effect = higher value
This is part of a sample that, as a whole, favours compounds with a hit. Of some 79,000 tested, about 15% had one in any assay. The source made the active and inactive calls. Rule as the data show it: active = growth inhibition above about 70%; inactive = the rest.

Value of measured growth inhibition for the entry CCCCCCCCCCCCCCCCCC(=O)Oc1c(C(C)CC)cc([N+](=O)[O-])cc1[N+](=O)[O-] (stereo not given) : 46.2% (inactive)

Value of measured growth inhibition for the entry COC(=O)c1ccc(CS(=O)(=O)c2ccccc2)cc1 : 4.6% (inactive)

Value of measured growth inhibition for the entry O=P1(O)c2ccccc2Oc2ccccc21 : 7.45% (inactive)

Value of measured growth inhibition for the entry N#C/C(C(N)=O)=C1\CCCc2sccc21 : -6.3% (inactive)

Value of measured growth inhibition for the entry COc1ccc(NC(C)=O)cc1Br : -11.1% (inactive)

Value of measured growth inhibition for the entry CCOC(=O)C(C(=O)OCC)C(c1ccccc1)c1ccccc1OC (stereo not given) : 4.15% (inactive)

Value of measured growth inhibition for the entry CCc1cc(C)cc(C(C)(C)C)c1 : 25.1% (inactive)

Value of measured growth inhibition for the entry Nc1nc(SCc2ccccc2[N+](=O)[O-])c2[nH]cnc2n1 : 16.2% (inactive)

Value of measured growth inhibition for the entry CC(C)NC(=O)CC(NCc1ccccc1)C(=O)O (stereo not given) : 21.1% (inactive)

Value of measured growth inhibition for the entry CCOC(=O)C1CCCCC1NC1CCCCC1C(=O)OCC (stereo not given) : -22.9% (inactive)

Value of measured growth inhibition for the entry COc1ccc(CCNC(=O)Cc2ccccc2CCO)cc1OC : -29.5% (inactive)

Value of measured growth inhibition for the entry CCOC(=O)c1c(Nc2ccccc2O)oc2ccccc12 : 6.95% (inactive)

Value of measured growth inhibition for the entry Cn1cnc([N+](=O)[O-])c1Sc1nc(N)nc2c1ncn2C1OC(CO)C(O)C1O (stereo not given) : 15.6% (inactive)

Value of measured growth inhibition for the entry Cc1ccc(S(=O)(=O)OCC2CCC(COS(=O)(=O)c3ccc(C)cc3)O2)cc1 (stereo not given) : -4.85% (inactive)

Value of measured growth inhibition for the entry c1cn2cnnc2n2cnnc12 : -15.6% (inactive)

###

- ASSAY METHOD TEXT: NCI Yeast Anticancer Drug Screen. Data for the mec2-1 strain (AID 157)
- TEST SETTINGS: S. cerevisiae mec2-1 strain, at 50.0 µM, stronger effect = higher value
- Protocol: Growth inhibition of yeast strains with defined genetic alterations is measured as a screen for potential anti-cancer activity. Selected strains with alterations in DNA damage repair or cell cycle control were exposed to compounds and growth inhibition was measured relative to vehicle treated controls. The strain used in this assay is mec2-1
The panel holds about 79,000 compounds, 15% with a hit somewhere; the sample as a whole holds those more often.
MEASURE NAME: growth inhibition (%)
# number only, unit % dropped from output

Value of measured growth inhibition for the entry COC(=O)c1ccccc1NC(=O)c1ccccc1C(=O)O : 41

Value of measured growth inhibition for the entry Cc1ccc(C2=NO[C@@H]3C(=O)N(c4ccc(Cc5ccc(N6C(=O)[C@H]7C(c8ccc(C)cc8)=NO[C@H]7C6=O)cc5)cc4)C(=O)[C@H]23)cc1 : 30.1

Value of measured growth inhibition for the entry CCOC(=O)C1=C(C)NC(C)=C(C(=O)OCC)C1C : -35.9

Value of measured growth inhibition for the entry COc1ccc(/C=C(\Cl)c2ccc(OC)cc2)cc1 : 3.8

Value of measured growth inhibition for the entry C/C(=C\CNc1ncnc2c1ncn2CCC(=O)OC(C)(C)C)CO : -8.7

Value of measured growth inhibition for the entry COC(=O)C(C(=O)C(=O)Nc1cccc(O)c1)c1nc2ccc(Cl)cc2[nH]c1=O (stereo not drawn) : -3.95

Value of measured growth inhibition for the entry CCC(C)(O)C#CC(C)(O)CC (stereo not drawn) : -0.95

Value of measured growth inhibition for the entry c1ccc([Si](c2ccccc2)(c2ccccc2)c2ccc(-c3ccc([Si](c4ccccc4)(c4ccccc4)c4ccccc4)cc3)cc2)cc1 : -0.75

Value of measured growth inhibition for the entry c1ccc(CNCCNCc2ccccn2)nc1 : 7.45

Value of measured growth inhibition for the entry CCCCCCCCCCCO/N=C\c1c2c(O)c3c(O)c(C)c4c(c3c1O)C(=O)C(C)(O/C=C\C(OC)C(C)C(OC(C)=O)C(C)C(O)C(C)C(O)C(C)/C=C\C=C(\C)C(=O)N2)O4 (stereo not drawn) : -4.75

Value of measured growth inhibition for the entry Cc1ccc(S(=O)(=O)n2nc(C3OC(CO)C(O)C3O)c(O)c2C(N)=O)cc1 (stereo not drawn) : 16.6

Value of measured growth inhibition for the entry N#Cc1ccc(/C=C\c2ccc(C#N)cc2)cc1 : 5.05

Value of measured growth inhibition for the entry COC1OCC(OS(C)(=O)=O)C(NC(C)=O)C1OS(C)(=O)=O (stereo not drawn) : -2.85

Value of measured growth inhibition for the entry Cc1cc(C)nc(NS(=O)(=O)c2ccc(Nc3c4ccccc4nc4c(C(=O)Nc5ccc(S(=O)(=O)N=C(N)N)cc5)cccc34)cc2)n1 : 35.8

Value of measured growth inhibition for the entry O=C/C=C/C=C/C=C/c1ccccc1 : -6.15

Value of measured growth inhibition for the entry CCCCN1C(=O)C(CC(=O)OCC)SC1=S (stereo not drawn) : -28.7

Value of measured growth inhibition for the entry CN1CC(c2ccccc2)=Cc2c1ccc(N)c2N=N : -29.2

Value of measured growth inhibition for the entry Cc1cc(=O)[nH]c(NN2C(Cl)C(=O)C2c2cccc([N+](=O)[O-])c2)n1 (stereo not drawn) : -32.5

Value of measured growth inhibition for the entry C=C1CC(OC(=O)c2ccc([N+](=O)[O-])cc2)C1 : -16.6

Value of measured growth inhibition for the entry CCO[C@H]1OC(=O)[C@@H]2C(c3ccc(F)cc3)=NO[C@H]12 : -44.4

Value of measured growth inhibition for the entry O=C1Oc2cc3c(c4cccc1c24)OCN(c1ccc(Cl)cc1)C3 : 29.9

Value of measured growth inhibition for the entry C=CNC(=S)n1nc(-c2ccccc2NC(=O)C(F)(F)F)c(=O)n(C(=S)NC=C)c1=S : 38.5

Value of measured growth inhibition for the entry CC1CCCC(C)(c2ccccc2)/C1=N\Nc1ccc([N+](=O)[O-])cc1[N+](=O)[O-] (stereo not drawn) : 13.9

###

- ASSAY METHOD TEXT: NCI Yeast Anticancer Drug Screen. Data for the mlh1 rad18 strain (AID 175)
- TEST SETTINGS: S. cerevisiae mlh1 rad18 strain growth inhibition; at 50.0 µM; stronger effect = higher value
Compounds without any hit were thinned out: in the full panel of roughly 79,000, 15% have a hit.
MEASURE NAME: growth inhibition (%)
# number only, unit % dropped from output

Value of measured growth inhibition for the entry CCOC(=O)C1=NN(c2ccccc2)C(=O)/C1=C\n1ccc(=O)[nH]c1=S : -60.8

Value of measured growth inhibition for the entry Cc1cc2nc(Cl)n(C3OC(CO)C(O)C3O)c2cc1C (centres undefined) : 12.8

Value of measured growth inhibition for the entry N#CCC(=O)N/N=C1/C(=O)N(c2cc(Cl)ccc2Cl)C(=O)C(=O)C1c1nc2ccccc2s1 (centres undefined) : 51

Value of measured growth inhibition for the entry FC(F)(F)C1=NCCN1 : -10.3

Value of measured growth inhibition for the entry O=C1C(Br)=C(c2ccccc2)C(c2ccccc2)=C1c1ccccc1 : 55

Value of measured growth inhibition for the entry COc1cc(C2=C3C(=O)OCC3Cc3ccccc32)ccc1OCc1ccccc1 (centres undefined) : 29.6

Value of measured growth inhibition for the entry CN(C)c1ccc(/C=N\NC(=S)NCCCN2CCN(CCCNC(=S)N/N=C/c3ccc(N(C)C)cc3)CC2)cc1 : 27.2

Value of measured growth inhibition for the entry O=S(O)CCCCCSSSCCCCCS(=O)O : 44.7

Value of measured growth inhibition for the entry NCC1OC(n2cnc3c(N)ncnc32)CC1O (centres undefined) : -7.85

###

- ASSAY METHOD TEXT: NCI Yeast Anticancer Drug Screen. Data for the bub3 strain (AID 167)
- TEST SETTINGS: S. cerevisiae bub3 mutant strain, at 50.0 µM, stronger effect = higher value
The panel holds about 79,000 compounds, 15% with a hit somewhere; the sample as a whole holds those more often.
MEASURE NAME: growth inhibition (%)
# number only, unit % dropped from output

Value of measured growth inhibition for the entry Cc1cc(NC(=O)C(=O)CC(=O)c2ccc(Cl)s2)no1 : -6.7

Value of measured growth inhibition for the entry CN(C)CCSc1nc2ccccc2s1 : -16.6

Value of measured growth inhibition for the entry Cc1cc2c(cc1Cl)SC(N/N=C(\N)c1ccc(Cl)cc1)=NS2(=O)=O : -14.4

Value of measured growth inhibition for the entry O=S(=O)(O)c1cccc2cccc(Nc3ccccc3)c12 : -14.8

Value of measured growth inhibition for the entry COc1cc(/C=C2\N=C(C)OC2=O)ccc1O : 2.95

Value of measured growth inhibition for the entry O=C1c2ccccc2CC12CCC1(CC2)OCCO1 : -12.5

Value of measured growth inhibition for the entry CCOC(=O)C1=C(C(C)=O)C(c2cccc([N+](=O)[O-])c2)C(C(C)=O)=C(C(=O)OCC)N1 : -13.6

Value of measured growth inhibition for the entry O=C(O)C(Oc1ccccc1)Oc1ccccc1 : 6.6

Value of measured growth inhibition for the entry Cc1cccc(Nc2nnc(Nc3cccc(C)n3)c3ccccc23)n1 : -3.8

Value of measured growth inhibition for the entry Cn1c(=O)n(CCn2c(=O)n(C)c3ccccc32)c2ccccc21 : 4.5

Value of measured growth inhibition for the entry OC/C=C(\I)CCCOCOCc1ccccc1 : -10.5

Value of measured growth inhibition for the entry CC1CN(CC2COc3ccccc3O2)C(C)CN1 (configuration not stated) : 53.4

Value of measured growth inhibition for the entry CN(C)c1nc(N/N=C\C(O)C(O)C(O)C(O)CO)nc(N(C)C)n1 (configuration not stated) : 32.1

Value of measured growth inhibition for the entry O=C1C=C(N2CCCC2)CC1 : -17.1

Value of measured growth inhibition for the entry CCC(=O)CCN(CC)CC : -35.3

Value of measured growth inhibition for the entry O=C(Cl)c1cc(-c2ccc(Cl)cc2)nc2c(-c3ccccc3)cccc12 : -0.35

Value of measured growth inhibition for the entry CNc1ccccc1C(=O)N/N=C/c1ccc(O)c(OC)c1 : 37.4

Value of measured growth inhibition for the entry Cc1nn(C(=O)CC(=O)Nc2ccc(Cl)cc2)c(C)c1N=Nc1ccccc1F : -28.4

Value of measured growth inhibition for the entry CC(=O)n1cc(CC(C)O)c(=O)[nH]c1=O (configuration not stated) : -13.2

Value of measured growth inhibition for the entry Cc1ccc(S(=O)(=O)N/N=C/C(O)C(O)C(O)C(O)CO)cc1 (configuration not stated) : -8.45

Value of measured growth inhibition for the entry O=C1C2C3C=CC(C3)C2C(=O)N1c1ncc([N+](=O)[O-])s1 (configuration not stated) : -14.2

Value of measured growth inhibition for the entry CC(=O)OC1COC(N2C(=O)C(=O)c3cc(Br)c([N+](=O)[O-])cc32)C(OC(C)=O)C1OC(C)=O (configuration not stated) : -9.6

Value of measured growth inhibition for the entry CC1=CC(=O)/C(=C/N2CCNC2=S)C(=O)O1 : -31.3

Value of measured growth inhibition for the entry CC1=C(c2ccccc2)CON(c2ccccc2)C1 : 14.8

Value of measured growth inhibition for the entry CCOC(=O)c1ccc(NC(=O)/C=C/c2ccccc2)cc1 : 30.1

Value of measured growth inhibition for the entry COc1ccc(CN2CCCN(Cc3ccc(OC)cc3OC)C2c2ccc(N(C)C)cc2)c(OC)c1 : 15.7

Value of measured growth inhibition for the entry O=C1NC(=O)N2CCCOC2C1c1ccccc1 (configuration not stated) : -2.7
